biological target: S1 Fc fusion protein (SARS-CoV-2, UniProt P0DTC2 14-685); test: phage ELISA
experimental.endpoint: ELISA fold over background (fold)
Write the value in fold as a bare number.

Below: 3 binders and their reported ELISA fold over background.
SARS-CoV-2 variant 1-28 (antibody, V domains shown) VH: EVQLLESGGGLVQPGGSLRLSCAASGFTFSSYGMSWVRQAPGKGLEWVSAISGSGGGTYYADSVKGRFTISRDNSKNTLYLQMNSLRAEDTAVYYCASSSSWQFDYWGQGTLVTVSS VL: QSALTQPASVSGSPGQSITISCTGTSSGVGSYNLVSWYQQHPGKAPKLMIYEGSQRPSGVSNRFSGSKSGNTASLTISGLQAEDEADYYCCSYAGSSTHYVFGGGTKLTVL :: 1.1
SARS-CoV-2 variant 1-48 (antibody, V domains shown) VH: EVQLLESGGGLVQPGGSLRLSCAASGFTFSSHAMYWVRQAPGKGLEWVSAISGSAGSTYYADSVKGRFTISRDNSKNTLYLQMNSLRAEDTAVYYCAHDTKDFWSGYCIFDPWGQGTLVTVSS VL: QSALTQPASVSGSPGQSITISCTGTSSDIGSYNLVSWYQQHPGKAPKLMIYEGTKRPSGVSNRFSGSKSGNTASLTISGLQAEDEADYYCCSYAGSRTYVFGGGTKLTVL :: 0.8
SARS-CoV-2 variant 1-27 (antibody, V domains shown) VH: EVQLLESGGGLVQPGGSLRLSCAASGFTFSSYAMTWVRQAPGKGLEWVSAISGSGGGTYYADSVKGRFTISRDNSKNTLYLQMNSLRAEDTAVYYCASSSSWQFDYWGQGTLVTVSS VL: QSALTQPASVSGSPGQSITISCTGTSSYVGHYNLVSWYQQHPGKAPKLMIYEGSRRPSGVSNRFSGSKSGNTASLTISGLQAEDEADYYCCSYAGSYTHYVFGGGTKLTVL :: 1.3

I would be grateful if you could share the reported ELISA fold over background for SARS-CoV-2 variant 1-5 (antibody, V domains shown) VH: EVQLLESGGGLVQPGGSLRLSCAASGFTFSSQAMSWVRQAPGKGLEWVSAISGSGGGTYYADSVKGRFTISRDNSKNTLYLQMNSLRAEDTAVYYCAKDRRFGEFDPWGQGTLVTVSS VL: QSALTQPASVSGSPGQSITISCTGTSSGVGSYNLVSWYQQHPGKAPKLMIYEASKRPSGVSNRFSGSKSGNTASLTISGLQAEDEADYYCCSYAGSYTFAVFGGGTKLTVL . 1.2

Numbers sourced from patent US20210355194A1.
